test system: 633275-114-R-J1-PDC complex spheroids, viability; assay: Anticancer human tumor 633275-114-R-J1-PDC patient-derived endometrial adenocarcinoma cell line growth inhibition [GQUAD]; details: second compound 0.0316 µM; first compound 3.16 µM; stronger effect = lower value
// values below are reported viability, T/C
The reply should be a number in %, with the unit left off.

Nc1ccn(C2OC(CO)C(O)C2(F)F)c(=O)n1 (stereo not drawn) + Cc1cnc(CNC(=O)c2c(=O)c3ccc(N4CCCN(C)CC4)nc3n3c2sc2ccccc23)cn1: 20.6
COc1cc(C2c3cc4c(cc3C(OC3OC5COC(C)OC5C(O)C3O)C3COC(=O)C23)OCO4)cc(OC)c1O (stereo not drawn) + Cc1cnc(CNC(=O)c2c(=O)c3ccc(N4CCCN(C)CC4)nc3n3c2sc2ccccc23)cn1: 36.6

Turning now to a further record.
The measured viability, T/C associated with O=C(c1cc(Cc2n[nH]c(=O)c3ccccc23)ccc1F)N1CCN(C(=O)C2CC2)CC1 + Cc1[nH]c2ccc(F)cc2c1-c1nc2c3cccnc3c3ncccc3c2[nH]1 reads 80.5

----------
system: 633275-114-R-J1-PDC complex spheroids, viability; test: Anticancer human tumor 633275-114-R-J1-PDC cell line growth inhibition [GQUAD]; details: second compound 0.316 µM; first compound 0.0999 µM; stronger effect = lower value;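 also: spheroids exposed to the agents for seven days; percent of DMSO vehicle control viability which is 100%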
The following compounds are listed with their measured viability, T/C values.
Lab book: enter the figure in %, no units written.

In the examples that follow, each entry is paired with its recorded viability, T/C.
Cc1[nH]c2ccccc2c1CCNCc1ccc(/C=C/C(=O)NO)cc1 + Cc1cnc(CNC(=O)c2c(=O)c3ccc(N4CCCN(C)CC4)nc3n3c2sc2ccccc23)cn1: 21.7
Cn1ncnc1[C@H]1c2n[nH]c(=O)c3cc(F)cc(c23)N[C@@H]1c1ccc(F)cc1 + Cc1[nH]c2ccc(F)cc2c1-c1nc2c3cccnc3c3ncccc3c2[nH]1: 69.1
Cn1ncnc1[C@H]1c2n[nH]c(=O)c3cc(F)cc(c23)N[C@@H]1c1ccc(F)cc1 + Cc1cnc(CNC(=O)c2c(=O)c3ccc(N4CCCN(C)CC4)nc3n3c2sc2ccccc23)cn1: 37.6
Cc1[nH]c2ccccc2c1CCNCc1ccc(/C=C/C(=O)NO)cc1 + Cc1[nH]c2ccc(F)cc2c1-c1nc2c3cccnc3c3ncccc3c2[nH]1: 44.8
CCc1c2c(nc3ccc(O)cc13)-c1cc3c(c(=O)n1C2)COC(=O)[C@]3(O)CC + Cc1cnc(CNC(=O)c2c(=O)c3ccc(N4CCCN(C)CC4)nc3n3c2sc2ccccc23)cn1: 30

Kindly consider the entry below.
Form field viability, T/C, entry CC[C@@]1(O)C(=O)OCc2c1cc1n(c2=O)Cc2cc3c(CN(C)C)c(O)ccc3nc2-1 + Cc1[nH]c2ccc(F)cc2c1-c1nc2c3cccnc3c3ncccc3c2[nH]1 : 41.8

----------
system: 633275-114-R-J1-PDC complex spheroids, viability; experiment: Anticancer human tumor 633275-114-R-J1-PDC cell line growth inhibition [GQUAD]; settings: second compound 3.16 µM; first compound 1 µM; stronger effect = lower value;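 also: spheroids exposed to the agents for seven days; percent of DMSO vehicle control viability which is 100%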
Param label: returns satisfied when viability, T/C < 30%, returns not satisfied otherwise, including exact equality.

Consider the following illustrative entries.
CC1COCCN1c1cc(C2(S(C)(=N)=O)CC2)nc(-c2ccnc3[nH]ccc23)n1 (stereo not given) + Cc1[nH]c2ccc(F)cc2c1-c1nc2c3cccnc3c3ncccc3c2[nH]1: not satisfied
COc1ccc([C@@H](O)c2cc(-c3ncnc4cc(N5CCOCC5)ccc34)c(F)cc2Cl)nn1 + Cc1cnc(CNC(=O)c2c(=O)c3ccc(N4CCCN(C)CC4)nc3n3c2sc2ccccc23)cn1: satisfied
COc1cc(C2c3cc4c(cc3C(OC3OC5COC(C)OC5C(O)C3O)C3COC(=O)C23)OCO4)cc(OC)c1O (stereo not given) + Cc1cnc(CNC(=O)c2c(=O)c3ccc(N4CCCN(C)CC4)nc3n3c2sc2ccccc23)cn1: not satisfied
O=C(NO)c1cnc(N2CCN(S(=O)(=O)c3ccc4ccccc4c3)CC2)nc1 + Cc1[nH]c2ccc(F)cc2c1-c1nc2c3cccnc3c3ncccc3c2[nH]1: not satisfied

Here is another compound to look at.
### Prompt Decide: viability, T/C of COc1ncnc(C2CC2)c1-c1ncc2cnn(Cc3ccc(-c4nc(C(F)(F)F)cn4C(C)C)cc3)c2n1 + Cc1cnc(CNC(=O)c2c(=O)c3ccc(N4CCCN(C)CC4)nc3n3c2sc2ccccc23)cn1 strictly below 30%?
### Response not satisfied
